Answer each item with its documented CC50 at 72 h.
experiment: Cytotoxicity, colorimetric MTT assay; assay type: cell-based; conditions: African green monkey, Vero (ATCC CCL-81) cells, 72 h incubation
Quick note: give the figure in µM, leave out the unit.

Consider the compound C#CCOC1=CC(=O)c2ccccc2C1=O and give its measured CC50 at 72 h.
21.2

Consider the compound O=C(NCCCOCCCNC(=O)c1ccc(-c2ccc(Br)cc2)o1)c1ccc(-c2ccc(Br)cc2)o1 and give its measured CC50 at 72 h.
43.4

Consider the compound CC(=O)O[C@@H]1[C@H](OC(C)=O)[C@H](C)O[C@H](n2cc(COC3=CC(=O)c4ccccc4C3=O)nn2)[C@H]1OC(C)=O and give its measured CC50 at 72 h.
33.8

Consider the compound Cc1ccc(OCC(N)COc2ccc(C)cc2)cc1 and give its measured CC50 at 72 h.
19
